- TEST CONDITIONS: pH 2.7
Marks after values point to notes of the source that are not given here.
Item-by-item account of Log P
ASSAY METRIC: Log P

1) CCOC(=O)C(C#N)=C(NC(C)(C)C#Cc1ccc(C#N)cc1)c1cn(C)nc1C(F)F [Compound 1090] ... 3.37^[a]
2) CCOC(=O)C(C#N)=C(NC1CC1C1CC1)c1cccnc1Cl (centres unmarked) ... 3.13^[a]
3) CCOC(=O)C(C#N)=C(NC(c1ccc(Cl)cc1)C(F)(F)F)c1cccnc1Cl (racemic) ... 4.25^[a]
4) CCOC(=O)C(C#N)=C(Nc1ccc(Cl)cc1)c1cn(C)nc1C(F)F ... 3.23^[a]
5) CCOC(=O)C(C#N)=C(Nc1ccccc1SC)c1c(C)nn(C)c1Cl ... 3.42^[a]
6) C=CC(COCc1ccccc1)NC(=C(C#N)C(=O)OC)c1sc(C)nc1C(F)(F)F (centres unmarked) ... 3.89^[a]
7) CCOC(=O)C(C#N)=C(NCc1ccccc1SC)c1sc(C)nc1C(F)(F)F ... 3.87^[a]
8) C=CCNC(=O)C(C#N)=C(NC(C)c1ccccn1)c1cn(C)nc1C(F)F (racemic) ... 2.02^[a]

====

- TEST CONDITIONS: pH 2.7
Marks after values point to notes of the source that are not given here.
ASSAY METRIC: Log P

1) CCOC(=O)C(C#N)=C(NCc1ncc(C)s1)c1ccsc1Br ... 3^[a]
2) CCOC(=O)C(C#N)=C(NCc1ccc(F)cn1)c1sccc1C(F)(F)F ... 3.19^[a]
3) CCOC(=O)C(C#N)=C(NC(C)Cc1c[nH]c2ccccc12)c1cn(C)nc1C(F)F (racemic) ... 3.25^[a]
4) CCOC(=O)C(C#N)=C(NC(C)c1ccccc1Cl)c1cn(C)nc1C(F)F (racemic) ... 3.46^[a]
5) CCOC(=O)C(C#N)=C(NCc1nccs1)c1sc(C)nc1C(F)(F)F ... 2.66^[a]
6) CCOC(=O)C(C#N)=C(NC(C)CN(C)C)c1cn(C)nc1C(F)F (racemic) ... 1.13^[a]
7) C=CCOC(=O)C(C#N)=C(NC(C)c1nccs1)c1sccc1Br (centres unmarked) ... 3.31^[a]
8) C=CCSc1ccccc1NC(=C(C#N)C(=O)OCC)c1cc(C)oc1C ... 4.25^[a]
9) CCOC(=O)C(C#N)=C(NC(C)c1nccs1)c1ccnc(Br)c1F (centres unmarked) ... 3^[a]
10) COC(=O)C(C#N)=C(NC(C)C1CC1)c1sc(C)nc1C(F)(F)F (centres unmarked) ... 3.27^[a]
11) COC(=O)C(C#N)=C(NC(C)CN(C)C)c1sc(C)nc1C(F)(F)F (centres unmarked) ... 1.17^[a]
12) CCOC(=O)C(C#N)=C(NC(C)c1ncc(Br)cc1Cl)c1cccnc1Cl (mixture of isomers) ... 3.9^[a]
13) CCOC(=O)C(C#N)=C(NC(C)C(=O)NC)c1cc(Cl)sc1Cl (centres unmarked) ... 2.46^[a]
14) CCOC(=O)C(C#N)=C(NC(C)c1ccccn1)c1ccnc(C(F)(F)F)c1Cl (centres unmarked) ... 3.33^[a]
15) CCOC(=O)C(C#N)=C(Nc1ccc(N(C)C)cc1)c1sc(C)nc1C(F)(F)F ... 3.71^[a]
16) CCOC(=O)C(C#N)=C(NC(C)c1nccs1)c1sc(Cl)nc1Cl (racemic) ... 3.27^[a]
17) CCOC(=O)C(C#N)=C(NCC1(C)COC1)c1cccnc1Cl ... 2.11^[a]

====

- TEST CONDITIONS: pH 7.5
ASSAY METRIC: Log P

1. C=Cc1ncccc1C(NC(C)C(C)C)=C(C#N)C(=O)OCC (stereo not shown) ... 3.26
2. C=CCOC(=O)C(C#N)=C(NC(C)c1nccs1)c1cccnc1Cl (stereo not shown) ... 2.56
3. COC(=O)C(C#N)=C(NC(C)C(C)C)c1cccnc1Cl (stereo not shown) [Compound 932] ... 2.85
4. CCOC(=O)C(C#N)=C(NC(C)C(C)C)c1ccc(C)nc1Cl (stereo not shown) ... 3.63
5. COC(=O)C(C#N)=C(NCc1ccc(Cl)cc1)c1cccnc1Cl ... 2.96
6. CCOC(=O)C(C#N)=C(NC(C)C(C)C)c1cccnc1C(C)=O (stereo not shown) ... 3.08
7. CCOC(=O)C(C#N)=C(NC(C)CSC)c1cccnc1Cl (stereo not shown) ... 2.71

====

Item-by-item account of Log P
- TEST CONDITIONS: pH 2.7
Marks after values point to notes of the source that are not given here.
ASSAY METRIC: Log P

1. CCOC(=O)C(C#N)=C(NC(C)c1nccs1)c1cn(C)nc1I (racemic) [Compound 1247] ... 3.46^[a]
2. CCOC(=O)C(C#N)=C(NC(C)c1ccccn1)c1conc1C (stereo not shown) [Compound 82] ... 2.36^[a]
3. CCOC(=O)C(C#N)=C(NC(C)c1ccccn1)c1ccnc(C)c1F (stereo not shown) [Compound 1320] ... 2.5^[a]
4. COC(=O)C(C#N)=C(NC(C)Cc1ccccc1)c1cccnc1Cl (stereo not shown) [Compound 426] ... 2.98^[a]
5. C=CCOC(=O)C(C#N)=C(NC(C)C(C)C)c1cccnc1Cl (stereo not shown) [Compound 955] ... 3.55
6. CCOC(=O)C(C#N)=C(NC(C)CC)c1cccnc1C(F)F (racemic) [Compound 842] ... 2.87^[a]
7. CC(C)NC(=O)C(C#N)=C(NC(C)c1nccs1)c1sccc1Br (stereo not shown) [Compound 214] ... 3.11^[a]
8. CCOC(=O)C(C#N)=C(Nc1ccccc1SC)c1nc(Cl)ccc1Cl [Compound 502] ... 3.99^[a]
9. CCOC(=O)C(C#N)=C(NC(C)C(C)OC)c1cnn(C)c1Cl (mixture of isomers) [Compound 1543] ... 2.67^[a]
10. CCOC(=O)C(C#N)=C(Nc1ccc(SC)cc1)c1cn(C)nc1C(F)F [Compound 474] ... 3.19^[a]
11. CNC(=O)C(C)NC(=C(C#N)C(=O)OC)c1sc(C)nc1C(F)(F)F (stereo not shown) [Compound 638] ... 1.93^[a]
12. CCOC(=O)C(C#N)=C(NCc1ccccn1)c1sccc1Cl [Compound 159] ... 2.56^[a]
13. CCOC(=O)C(C#N)=C(NC(C)C(C)C)c1c(C)nn(C)c1Cl (stereo not shown) [Compound 943] ... 3.67^[a]
14. C=CCCCC(C=C)NC(=C(C#N)C(=O)OCC)c1sccc1C(F)(F)F (racemic) [Compound 1014] ... 4.7^[a]
15. CCOC(=O)C(C#N)=C(NC(C)c1ccccn1)c1ccncc1Br (mixture of isomers) [Compound 299] ... 2.5^[a]
16. CCOC(=O)C(C#N)=C(NC(C)c1nccs1)c1conc1C (stereo not shown) [Compound 77] ... 2.4^[a]

====

Item-by-item account of Log P
- TEST CONDITIONS: pH 2.7
Marks after values point to notes of the source that are not given here.
ASSAY METRIC: Log P

1) COC(=O)C(C#N)=C(NC(C)(C)c1ccc(F)cc1)c1cccnc1Cl ... 2.98^[a]
2) CCON=C(C)C(C)NC(=C(C#N)C(=O)OCC)c1cccnc1Cl (centres unmarked) ... 3.29^[a]
3) C#CCC(C#N)NC(=C(C#N)C(=O)OCC)c1cccnc1Cl (racemic) ... 2.37^[a]
4) CCOC(=O)C(C#N)=C(NC(C#N)CC)c1cn(C)nc1C(F)F (racemic) ... 2.45^[a]
5) CCSC(=O)C(C#N)=C(NC(C)c1nccs1)c1cccnc1Cl (centres unmarked) ... 2.9^[a]
6) CCOC(=O)C(C#N)=C(NC(C)C(=O)OC)c1sccc1C(F)(F)F (centres unmarked) ... 3.11^[a]
7) CCOC(=O)C(C#N)=C(NC(C)c1ccccn1)c1sccc1C(F)(F)F (centres unmarked) ... 3.27^[a]
8) CCOC(=O)C(C#N)=C(NC(C)c1nc(C)cs1)c1cccnc1Cl (centres unmarked) ... 2.88^[a]
9) CCOC(=O)C(C#N)=C(NC(C)Cc1ccccc1)c1cccnc1Cl (centres unmarked) ... 3.5^[a]
10) COC(=O)C(C#N)=C(Nc1ccccc1SC)c1sc(C)nc1C(F)(F)F ... 3.46^[a]
11) CCOC(=O)C(C#N)=C(NCc1nccs1)c1cnc(Cl)cc1Cl ... 2.68^[a]
12) CCOC(=O)C(C#N)=C(NC(C)c1cccc2ccccc12)c1ncc(Cl)cc1Cl (centres unmarked) ... 4.65^[a]
13) CCOC(=O)C(C#N)=C(NC1COC1)c1cccnc1Cl ... 1.84^[a]
14) CCOC(=O)C(C#N)=C(NC1CC1CC)c1cccnc1Cl (centres unmarked) [Compound 1190] ... 3.23^[a]
15) CCOC(=O)C(C#N)=C(NC(C)C(C)C)c1cc(Cl)sc1Cl (centres unmarked) [Compound 965] ... 4.72^[a]
16) CCOC(=O)C(C#N)=C(NC1CCCC1OCC)c1cn(C)nc1C(F)F (centres unmarked) ... 3.21^[a]
17) CCOC(=O)C(C#N)=C(NC(C(N)=O)C(C)C)c1cccnc1Cl (centres unmarked) ... 2.07^[a]
18) C=CC(COCc1ccccc1)NC(=C(C#N)C(=O)OCC)c1sc(C)nc1C(F)(F)F (centres unmarked) ... 4.21^[a]
19) CCOC(=O)C(C#N)=C(Nc1cccc2scnc12)c1cccnc1Cl ... 2.61^[a]
20) CCOC(=O)C(C#N)=C(NC(C)c1ccccn1)c1ccnc(Cl)c1F (centres unmarked) ... 3^[a]
21) CCOC(=O)C(C#N)=C(NC(C)C1CC2CCC1C2)c1cccnc1Cl (centres unmarked) ... 4.39^[a]
22) CCOC(=O)C(C#N)=C(NC(C)c1c(Cl)cccc1Cl)c1cnn(C)c1Cl (centres unmarked) ... 3.78^[a]
23) CCOC(=O)C(C#N)=C(NC(C)C(N)=O)c1ccsc1I (centres unmarked) ... 1.91^[a]
24) CCOC(=O)C(C#N)=C(NC(C)(C)CSC)c1sccc1Br ... 3.73^[a]
25) COC(=O)C(C#N)=C(NC1(c2ccccc2Cl)CC1)c1cccnc1Cl ... 2.61^[a]
26) CCOC(=O)C(C#N)=C(Nc1ccccc1OC(F)(F)F)c1cn(C)nc1C(F)F ... 3.42^[a]
